Reported HDAC6 activity raw data (signal) is given for each of the following compounds.
- Tested system: HDAC6 (Homo sapiens, UniProt Q9UBN7)
- Construct: purchased Reaction Biology Corporation (assay run by the CRO)
- Sequence (Q9UBN7 whole entry): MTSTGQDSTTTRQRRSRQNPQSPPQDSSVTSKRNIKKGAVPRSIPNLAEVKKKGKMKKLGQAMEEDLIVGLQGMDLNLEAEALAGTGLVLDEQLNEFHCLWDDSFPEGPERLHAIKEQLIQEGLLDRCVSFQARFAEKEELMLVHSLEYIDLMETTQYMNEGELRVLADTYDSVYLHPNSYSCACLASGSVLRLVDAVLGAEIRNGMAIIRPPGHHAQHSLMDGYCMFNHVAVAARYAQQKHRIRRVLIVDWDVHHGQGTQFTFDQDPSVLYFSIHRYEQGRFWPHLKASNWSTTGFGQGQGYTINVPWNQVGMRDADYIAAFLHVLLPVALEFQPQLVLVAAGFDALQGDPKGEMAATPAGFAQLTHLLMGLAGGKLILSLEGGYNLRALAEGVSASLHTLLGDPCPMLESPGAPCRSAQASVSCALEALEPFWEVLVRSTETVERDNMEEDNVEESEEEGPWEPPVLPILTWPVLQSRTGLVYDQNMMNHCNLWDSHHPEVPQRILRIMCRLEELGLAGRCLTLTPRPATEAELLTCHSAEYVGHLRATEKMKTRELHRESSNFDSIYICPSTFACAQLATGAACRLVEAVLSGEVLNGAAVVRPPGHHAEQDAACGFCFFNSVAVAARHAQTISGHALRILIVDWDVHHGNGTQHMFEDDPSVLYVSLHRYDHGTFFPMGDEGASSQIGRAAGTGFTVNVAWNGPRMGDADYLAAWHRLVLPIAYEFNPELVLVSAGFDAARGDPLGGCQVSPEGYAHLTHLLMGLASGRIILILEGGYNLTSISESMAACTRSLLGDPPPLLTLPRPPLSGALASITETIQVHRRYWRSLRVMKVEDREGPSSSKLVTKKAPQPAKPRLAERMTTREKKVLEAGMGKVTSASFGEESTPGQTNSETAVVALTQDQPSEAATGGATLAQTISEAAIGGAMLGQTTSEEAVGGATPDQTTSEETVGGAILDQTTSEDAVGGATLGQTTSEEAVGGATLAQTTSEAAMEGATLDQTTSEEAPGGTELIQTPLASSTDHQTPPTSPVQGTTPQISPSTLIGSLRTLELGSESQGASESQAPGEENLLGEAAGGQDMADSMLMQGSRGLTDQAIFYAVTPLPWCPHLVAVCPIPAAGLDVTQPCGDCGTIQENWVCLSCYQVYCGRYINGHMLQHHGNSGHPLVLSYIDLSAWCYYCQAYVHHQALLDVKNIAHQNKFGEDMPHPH
- Method summary: HDAC6 inhibition, full IC50 measurement (Reaction Biology; fluorogenic p53 peptide RHKK(Ac)AMC)
- Type: biochemical
- Condition set: Conc. 1.23E-07 M, t2
Peptide text beside a SMILES is read from it.

{"Compound": "CSCC[C@H]1NC(=O)[C@@H](CO)NC(=O)[C@H](CC(N)=O)NC(=O)[C@H](CC(=O)O)NC(=O)[C@@H]([C@H](C)O)NC(=O)[C@H](Cc2c[nH]c3ccccc23)NC(=O)[C@H](CCCCCS)NC(=O)[C@H](CCCCN)NC(=O)[C@@H](CC(=O)O)NC1=O [des2.1.1, SHA-Trp-dThr-Asp-Asn-dSer-dMet-dAsp-Lys] (HELM PEPTIDE1{D.N.[dS].[dM].[dD].K.[O=C([C@H](CCCCCS)N[*:1])[*:2]].W.[dT]}$PEPTIDE1,PEPTIDE1,1:R1-9:R2$$$V2.0)", "HDAC6 activity raw data (signal)": 56137}
{"Compound": "N=C(N)NCCC[C@H]1NC(=O)[C@@H]2CCCN2C(=O)[C@H](CO)NC(=O)[C@@H](Cc2c[nH]cn2)NC(=O)[C@H](CCCCCS)NC(=O)[C@H](CCCCN)NC(=O)[C@H](Cc2ccc(O)cc2)NC(=O)[C@H]2CCCN2C(=O)[C@@H](CCC(N)=O)NC1=O [des3.1.0, SHA-dHis-Ser-Pro-dArg-dGln-dPro-Tyr-Lys] (HELM PEPTIDE1{K.[O=C([C@H](CCCCCS)N[*:1])[*:2]].[dH].S.P.[dR].[dQ].[dP].Y}$PEPTIDE1,PEPTIDE1,1:R1-9:R2$$$V2.0)", "HDAC6 activity raw data (signal)": 168002}
{"Compound": "CCCC[C@H]1NC(=O)[C@H](Cc2ccccc2)NC(=O)[C@H](CCCCCS)NC(=O)[C@@H](CCCNC(=N)N)NC(=O)[C@H](C)NC(=O)[C@@H](CO)NC(=O)[C@@H](C)NC(=O)[C@H](CCCCN)NC1=O [des4.3.1.3, SHA-Phe-dNle-Lys-dAla-dSer-Ala-dArg] (HELM PEPTIDE1{A.[dR].[O=C([C@H](CCCCCS)N[*:1])[*:2]].F.[CCCC[C@@H](N[*:1])C(=O)[*:2]].K.[dA].[dS]}$PEPTIDE1,PEPTIDE1,1:R1-8:R2$$$V2.0)", "HDAC6 activity raw data (signal)": 156860}
{"Compound": "CC(C)[C@@H]1NC(=O)[C@H](CCCNC(=N)N)NC(=O)[C@@H](CC(=O)O)NC(=O)[C@H](CO)NC(=O)[C@@H](CO)NC(=O)[C@@H](CCC(=O)O)NC(=O)[C@H](Cc2ccc(O)cc2)NC(=O)[C@H](CCCCCS)NC1=O [des4.2.0, SHA-Tyr-dGlu-dSer-Ser-dAsp-Arg-Val] (HELM PEPTIDE1{R.V.[O=C([C@H](CCCCCS)N[*:1])[*:2]].Y.[dE].[dS].S.[dD]}$PEPTIDE1,PEPTIDE1,1:R1-8:R2$$$V2.0)", "HDAC6 activity raw data (signal)": 290391}
{"Compound": "CCCC[C@H]1NC(=O)[C@H](Cc2ccccc2)NC(=O)[C@H](CCCCCS)NC(=O)[C@@H](CCCNC(=N)N)NC(=O)[C@H](CC(=O)O)NC(=O)[C@@H](CO)NC(=O)[C@@H](C)NC(=O)[C@H](CCCCN)NC1=O [des4.3.1, SHA-Phe-dNle-Lys-dAla-dSer-Asp-dArg] (HELM PEPTIDE1{D.[dR].[O=C([C@H](CCCCCS)N[*:1])[*:2]].F.[CCCC[C@@H](N[*:1])C(=O)[*:2]].K.[dA].[dS]}$PEPTIDE1,PEPTIDE1,1:R1-8:R2$$$V2.0)", "HDAC6 activity raw data (signal)": 90888}
